Where these numbers come from: ChEMBL document CHEMBL5665443

- STUDY_TARGET: Endonuclease 8-like 2 (Homo sapiens)
- EXPERIMENTAL_SETUP: Compound Concentration 10.0 uM, Hit No
- Description: Inhibition of NEIL2 by quantifying inhibition of NEIL2-mediated cleavage and dissociation of quenched duplex DNA oligonucleotides, measured as fluorescence at 594 nm.
VALUE_TYPE: inhibition (%)
The response must be a number in % with no trailing unit.

The cases that follow already have their inhibition on record.
>>> quantitative_result("CCc1cc2c(cc1CC)CC(NC[C@H](O)c1ccc(O)c3[nH]c(=O)ccc13)C2")
-2.48
>>> quantitative_result("C[C@@H](Cn1c(=O)[nH]/c(=N\\c2ccc(Oc3ccccn3)cc2)n(Cc2ccc(Cl)cc2)c1=O)C(=O)O")
5.25

Prompt: GET inhibition where system = Endonuclease 8-like 2 (Homo sapiens) and item = O=C(Nc1ccc(Cl)cc1)Nc1cccc(-c2cccc(N3CCCC3)n2)c1
Response: -4.23

Prompt: GET inhibition where system = Endonuclease 8-like 2 (Homo sapiens) and item = NCCCNCCCCNCCC(=O)NCCCCCNC(=O)[C@H](CC(N)=O)NC(=O)Cc1ccc(O)cc1O
Response: -3.66

Prompt: GET inhibition where system = Endonuclease 8-like 2 (Homo sapiens) and item = C[C@@H]1CN(c2ncc(Cl)c(Nc3ccc4c(c3)n(CCC(C)(C)O)c(=O)n4C)n2)C[C@H](C)C1(F)F
Response: -9.67

Prompt: GET inhibition where system = Endonuclease 8-like 2 (Homo sapiens) and item = O=C(O)c1ccc2c(c1)nc(Nc1cccc(Cl)c1)c1ccncc12
Response: -9.73

Prompt: GET inhibition where system = Endonuclease 8-like 2 (Homo sapiens) and item = Cc1cc(C(C)(C)C)c(O)c(C)c1CC1=NCCN1
Response: 19

Prompt: GET inhibition where system = Endonuclease 8-like 2 (Homo sapiens) and item = NC1(c2ccc(-c3nc4c(O)ccnn4c3-c3ccccc3)cc2)CCC1
Response: -3.27

Prompt: GET inhibition where system = Endonuclease 8-like 2 (Homo sapiens) and item = Cc1c(OCc2cccc(-c3ccc(C(=O)O)cc3)c2)cc2c(c1C)C(=O)C(C1CCCC1)C2 (centres undefined);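 note: fluorescence at 594 nm reports NEIL2 cutting and release of a quenched double-stranded DNA oligo substrate, reduced signal read as inhibition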
Response: -2.23

====

- STUDY_TARGET: Single-strand selective monofunctional uracil DNA glycosylase (Homo sapiens) (UniProt Q53HV7);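 note: enzymatic SMUG1 assay coupled with APE1, reading fluorescence at 594 nm released when a quenched double-stranded DNA oligonucleotide substrate is cleaved and separated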
- Sequence (whole entry): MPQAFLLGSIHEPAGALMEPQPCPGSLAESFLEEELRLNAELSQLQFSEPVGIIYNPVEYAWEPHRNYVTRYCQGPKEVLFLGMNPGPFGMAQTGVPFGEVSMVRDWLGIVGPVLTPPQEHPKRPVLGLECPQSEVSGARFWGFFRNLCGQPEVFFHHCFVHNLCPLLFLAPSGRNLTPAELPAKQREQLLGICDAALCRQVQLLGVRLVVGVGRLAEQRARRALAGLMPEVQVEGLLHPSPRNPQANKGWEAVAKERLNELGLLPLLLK
- EXPERIMENTAL_SETUP: Compound Concentration 10.0 uM, Hit No
- Description: Inhibition of SMUG1 by quantifying inhibition of SMUG1-mediated cleavage and dissociation of quenched duplex DNA oligonucleotides, measured as fluorescence at 594 nm. To generate a functional strand incision and increase turn-over this assay is coupled to APE1.
Where a SMILES comes first, the peptide text is derived from it. Bridges are numbered along the chain shown (N, C = ends). [ ]: non-standard residue; d: D form. Orn = NCCC[C@H](N)C(=O)O; Mpa = O=C(O)CCS
Entries and their inhibition
The response must be a number in % with no trailing unit.

The cases that follow already have their inhibition on record.
>>> quantitative_result("COc1c(Nc2ccc(S(C)(=O)=O)nc2C)ncnc1OC1CCN(C(=O)OC(C)C)CC1")
-7.64
>>> quantitative_result("C[C@H](NC(=O)c1c(C(F)F)nn(C)c1Oc1cccc(C(F)(F)F)c1)c1ccc(C(=O)O)cc1")
2.15

Here is another molecule to look at.
Prompt: In one line, give reported inhibition of the entry CCOc1ccc(C[C@H]2NC(=O)CCSSC[C@@H](C(=O)N3CCC[C@H]3C(=O)N[C@@H](CCCN)C(=O)NCC(N)=O)NC(=O)[C@H](CC(N)=O)NC(=O)[C@H]([C@@H](C)O)NC(=O)[C@H]([C@@H](C)CC)NC2=O)cc1 ([Mpa][dY](Et)ITNCP[Orn]G-NH2; disulfide 1-6) .
Response: -2.21

====

- STUDY_TARGET: DNA-3-methyladenine glycosylase (Homo sapiens)
- EXPERIMENTAL_SETUP: Compound Concentration 10.0 uM, Hit No
- Description: Inhibition of MPG by quantifying inhibition of MPG-mediated cleavage and dissociation of quenched duplex DNA oligonucleotides, measured as fluorescence at 594 nm. To generate a functional strand incision and increase turn-over this assay is coupled to APE1.
VALUE_TYPE: inhibition (%)
The response must be a number in % with no trailing unit.

>>> quantitative_result("CCn1cc(-c2ccnc3[nH]c(-c4cccc(CN(C)C)c4)cc23)c(-c2ccc(NC(=O)N(C)C)cc2)n1")
62.9
>>> quantitative_result("CSc1ccc(C(=O)/C=C/c2cc(C)c(OC(C)(C)C(=O)O)c(C)c2)cc1")
-8.02
>>> quantitative_result("Clc1ccccc1C(c1ccccc1)(c1ccccc1)n1cccn1")
-4.99
>>> quantitative_result("COc1cc([N+](=O)[O-])ccc1NC(=O)c1ccccc1O")
-4.2
>>> quantitative_result("CCOC(=O)c1ccc(N2C(=O)C(O)=C(C(=O)c3ccc(OC)cc3)C2c2ccc(F)cc2)cc1 (centres undefined)")
15.7

Prompt: GET inhibition where system = DNA-3-methyladenine glycosylase (Homo sapiens) and item = COc1ccc(S(=O)(=O)N2c3ccc(Cl)cc3[C@](O)(c3ccccc3Cl)[C@@H]2C(=O)N2CCC[C@H]2C(N)=O)cc1OC;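 note: enzyme assay where MPG cuts a quenched duplex DNA oligonucleotide probe, paired with APE1 for strand incision and turnover, read as fluorescence at 594 nm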
Response: 8.66

====

- STUDY_TARGET: Endonuclease 8-like 1 (Homo sapiens);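 note: fluorescence at 594 nm from quenched duplex DNA oligonucleotides released by NEIL1 cleavage and strand separation, reported as reduction of this enzyme activity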
- EXPERIMENTAL_SETUP: Compound Concentration 10.0 uM, Hit No
- Description: Inhibition of NEIL1 by quantifying inhibition of NEIL1-mediated cleavage and dissociation of quenched duplex DNA oligonucleotides, measured as fluorescence at 594 nm.
VALUE_TYPE: inhibition (%)
The response must be a number in % with no trailing unit.

>>> quantitative_result("COc1cc2nc(N3CCN(C(=O)C4CCCO4)CC3)nc(N)c2cc1OC (stereo unspecified)")
13.6
>>> quantitative_result("Fc1cccc(/C=N/N=C/c2cccc(F)c2)c1")
-5.18
>>> quantitative_result("N=C(N)SCCc1c[nH]cn1")
-8.06

Prompt: In one line, give reported inhibition of the entry CC1(C)N=C(C2CCCCC2)c2ccc(C#N)cc2N(c2ccc(NCCNC3CCOCC3)cc2)C1=O .
Response: 4.75

Prompt: In one line, give reported inhibition of the entry C[C@@H](CN1CCC(Cc2ccccc2)CC1)[C@@H](O)c1ccc(O)cc1 .
Response: 3.42

Prompt: In one line, give reported inhibition of the entry CNC1(C)C2CCC(C2)C1(C)C (stereo unspecified) .
Response: -4.14

Prompt: In one line, give reported inhibition of the entry c1ccc(C2CCN(c3cnc4c(N5CCOCC5)nccn34)CC2)cc1 .
Response: -3.17

Prompt: In one line, give reported inhibition of the entry CC[S+]([O-])c1nc(-c2cccc(OCc3ccccc3)c2)cc(C(F)(F)F)n1 (stereo unspecified) .
Response: 5.43

Prompt: In one line, give reported inhibition of the entry O=c1[nH]c(=O)c2nc3ccccc3nc2[nH]1 .
Response: 4.1

Prompt: In one line, give reported inhibition of the entry CCOC(=O)Nc1ccc2c(c1)N(C(=O)CN(CC)CC)c1ccccc1CC2 .
Response: -8.02

Prompt: In one line, give reported inhibition of the entry Cc1cccc(CN2CCN(C(c3ccccc3)c3ccc(Cl)cc3)CC2)c1 (stereo unspecified) .
Response: 5.62

====

- STUDY_TARGET: G/T mismatch-specific thymine DNA glycosylase (Homo sapiens);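 note: human TDG cleavage of quenched duplex DNA oligonucleotides coupled to APE1, strand release read as fluorescence at 594 nm, inhibition of TDG activity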
- EXPERIMENTAL_SETUP: Compound Concentration 10.0 uM, Hit No
- Description: Inhibition of TDG by quantifying inhibition of TDG-mediated cleavage and dissociation of quenched duplex DNA oligonucleotides, measured as fluorescence at 594 nm. To generate a functional strand incision and increase turn-over this assay is coupled to APE1.
Where a SMILES comes first, the peptide text is derived from it. [ ]: non-standard residue; d: D form. Arg(Me) = CNC(=N)NCCC[C@H](N)C(=O)O; d3Pal = N[C@H](Cc1cccnc1)C(=O)O; azaGly = NNC(=O)O
VALUE_TYPE: inhibition (%)
The response must be a number in % with no trailing unit.

>>> quantitative_result("COc1ccc([C@@H]2Sc3ccccc3N(CCN(C)C)C(=O)[C@@H]2OC(C)=O)cc1")
-1.73
>>> quantitative_result("Cc1ccc(-c2cnc([C@@]3(O)CC[C@H](C(=O)O)C(C)(C)C3)s2)cc1Nc1cccc(C(F)(F)F)n1")
58.3
>>> quantitative_result("NCCc1c[nH]c2ccc(O)cc12")
20.7

Prompt: In one line, give reported inhibition of the entry CNC(=O)COc1cc2cc(Nc3nc(N4C[C@H](C)C[C@H](C)C4)ncc3Cl)ccc2n(C)c1=O .
Response: 53.4

Prompt: In one line, give reported inhibition of the entry C[C@@H]1CN(c2cc(-c3n[nH]c4ccc(OC5(C)CC5)cc34)ncn2)C[C@H](C)O1 .
Response: 98.4

Prompt: In one line, give reported inhibition of the entry CNC(=N)NCCC[C@H](NC(=O)[C@H](CC(C)C)NC(=O)NNC(=O)[C@H](Cc1ccccc1)NC(=O)[C@H](CO)NC(=O)[C@H](CC(N)=O)NC(=O)[C@@H](Cc1cccnc1)NC(=O)[C@H](N)Cc1ccc(O)cc1)C(=O)NCC(N)=O (H-[dY][d3Pal]NSF[azaGly]L[Arg(Me)]G-NH2) .
Response: 62.4

Prompt: In one line, give reported inhibition of the entry COc1ccc(NC(=O)[C@@H]2C[C@H](C)CC[C@H]2C(C)C)cc1 .
Response: -1.07

Prompt: In one line, give reported inhibition of the entry CCOc1nc2cccc(C(=O)O)c2n1Cc1ccc(-c2ccccc2-c2nnn[nH]2)cc1 .
Response: 6.47

Prompt: In one line, give reported inhibition of the entry CCCN(CCC)CCc1cccc2c1CC(=O)N2 .
Response: 8.55

Prompt: In one line, give reported inhibition of the entry O=C(O)CCC/C=C\C[C@H]1C(=O)C[C@@H](O)[C@@H]1/C=C/[C@@H](O)CCc1ccccc1 .
Response: 20.6
